molecular target: FGF receptor/BKL complex; assay: FGF receptor potency in an Erk phosphorylation assay in HEK293 overexpressing human BKL; format: cell-based; conditions: HEK293/BKL cells, pERK after 12 minutes, absence of HSA; read-out: EC50
Sequence (Q86Z14 whole entry, one chain of several): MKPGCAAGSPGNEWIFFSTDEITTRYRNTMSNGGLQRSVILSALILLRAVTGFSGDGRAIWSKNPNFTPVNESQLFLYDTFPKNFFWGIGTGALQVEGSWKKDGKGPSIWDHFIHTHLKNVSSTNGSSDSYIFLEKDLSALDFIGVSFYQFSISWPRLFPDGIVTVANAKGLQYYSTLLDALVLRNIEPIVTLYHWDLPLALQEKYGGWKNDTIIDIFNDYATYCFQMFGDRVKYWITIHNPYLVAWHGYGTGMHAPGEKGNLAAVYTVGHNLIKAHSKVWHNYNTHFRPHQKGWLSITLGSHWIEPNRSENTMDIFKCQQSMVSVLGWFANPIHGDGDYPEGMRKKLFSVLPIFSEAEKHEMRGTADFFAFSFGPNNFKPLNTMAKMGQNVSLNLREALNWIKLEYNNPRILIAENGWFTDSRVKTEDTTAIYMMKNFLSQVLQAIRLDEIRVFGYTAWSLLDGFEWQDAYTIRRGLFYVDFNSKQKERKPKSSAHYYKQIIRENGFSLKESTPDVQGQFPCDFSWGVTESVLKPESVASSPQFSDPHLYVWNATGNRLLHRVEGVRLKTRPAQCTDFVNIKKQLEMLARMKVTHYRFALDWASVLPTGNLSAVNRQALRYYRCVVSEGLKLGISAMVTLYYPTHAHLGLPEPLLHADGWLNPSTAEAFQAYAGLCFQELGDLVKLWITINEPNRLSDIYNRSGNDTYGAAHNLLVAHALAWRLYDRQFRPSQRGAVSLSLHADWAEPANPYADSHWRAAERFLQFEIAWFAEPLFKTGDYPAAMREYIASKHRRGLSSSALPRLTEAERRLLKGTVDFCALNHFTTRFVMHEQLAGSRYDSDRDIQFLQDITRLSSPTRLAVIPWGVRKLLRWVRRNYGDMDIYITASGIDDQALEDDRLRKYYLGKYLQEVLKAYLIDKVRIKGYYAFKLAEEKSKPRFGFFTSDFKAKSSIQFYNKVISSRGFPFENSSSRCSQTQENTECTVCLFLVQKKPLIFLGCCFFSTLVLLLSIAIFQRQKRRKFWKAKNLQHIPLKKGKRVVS
Consider the following molecules; for each one, report its pEC50.
Here pEC50 is given on a logarithmic scale as minus log10 of the concentration in mol/L.

Suppose we examine the molecule Ala[Gln121, Leu168, Cys169]FGF21 (protein, N-terminal Ala) AHPIPDSSPLLQFGGQVRQRYLYTDDAQQTEAHLEIREDGTVGGAADQSPESLLQLKALKPGVIQILGVKTSRFLCQRPDGALYGSLHFDPEACSFRELLLEDGYNVYQSEAHGLPLHLPGQKSPHRDPAPRGPARFLPLPGLPPALPEPPGILAPQPPDVGSSDPLSLCGPSQGRSPSYAS ; what pEC50 value has been reported?
7.66

Entry to check: 16-[[(1S)-4-[2-[2-[2-[2-[2-[2-(2-acetamidoethylamino)-2-oxo-ethoxy]ethoxy]ethylamino]-2-oxo-ethoxy]ethoxy]ethylamino]-1-carboxy-4-oxo-butyl]amino]-16-oxo-hexadecanoic … (protein) HPIPDSSPLLQFGGQVRQRYLYTDDAQQTEAHLEIREDGTVGGAADQSPESLLQLKALKPGVIQILGVKTSRFLCQRPDGALYGSLHFDPEACSFRELLLEDGYNVYQSEAHGLPLHLPGQKSPHRDPAPRGPARFLPLPGLPPALPEPPGILAPQPPDVGSSDPLSLVGPSQCRSPSYAS
8.70

Entry to check: Ala[Gln121, Leu168, Cys174]FGF21 (protein, N-terminal Ala, FGF21 analogue) AHPIPDSSPLLQFGGQVRQRYLYTDDAQQTEAHLEIREDGTVGGAADQSPESLLQLKALKPGVIQILGVKTSRFLCQRPDGALYGSLHFDPEACSFRELLLEDGYNVYQSEAHGLPLHLPGQKSPHRDPAPRGPARFLPLPGLPPALPEPPGILAPQPPDVGSSDPLSLVGPSQGCSPSYAS
8.30

Entry to check: S{Beta-181}-[2-[2-[[2-[2-[2-[[2-[2-[2-[[(4S)-4-carboxy-4-(15-carboxypentadecanoyl-amino)butanoyl]amino]ethoxy]ethoxy]acetyl]amino]ethoxy]ethoxy]acetyl]amino]-ethylamino]-2-oxoethyl]-Ala[Gln121,Leu168, … (protein) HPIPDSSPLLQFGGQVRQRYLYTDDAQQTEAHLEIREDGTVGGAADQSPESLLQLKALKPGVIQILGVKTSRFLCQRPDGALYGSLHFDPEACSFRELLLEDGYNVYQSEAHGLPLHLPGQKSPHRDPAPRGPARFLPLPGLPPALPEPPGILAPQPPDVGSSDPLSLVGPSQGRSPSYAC
7.26

Entry to check: Ala[Gln121, Cys167, Leu168,]FGF21 (protein, N-terminal Ala) AHPIPDSSPLLQFGGQVRQRYLYTDDAQQTEAHLEIREDGTVGGAADQSPESLLQLKALKPGVIQILGVKTSRFLCQRPDGALYGSLHFDPEACSFRELLLEDGYNVYQSEAHGLPLHLPGQKSPHRDPAPRGPARFLPLPGLPPALPEPPGILAPQPPDVGSSDPLCLVGPSQGRSPSYAS
8.40

Entry to check: S{Beta-181}-[2-[2-[[2-[2-[2-[[2-[2-[2-[[(4S)-4-carboxy-4-(11-carboxyundecanoyl-amino)butanoyl]amino]ethoxy]ethoxy]acetyl]amino]ethoxy]ethoxy]acetyl]amino]-ethylamino]-2-oxoethyl]-Ala[Gln121,Leu168,Cys … (protein) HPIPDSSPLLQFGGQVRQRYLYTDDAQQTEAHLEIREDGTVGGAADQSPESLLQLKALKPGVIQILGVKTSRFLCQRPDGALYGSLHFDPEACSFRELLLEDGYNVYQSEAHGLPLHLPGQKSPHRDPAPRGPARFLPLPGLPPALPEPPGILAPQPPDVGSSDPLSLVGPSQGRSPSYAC
6.81

Entry to check: S{Beta-175}-[2-[2-[[2-[2-[2-[[2-[2-[2-[[(4S)-4-carboxy-4-(15-carboxypentadecanoyl-amino)butanoyl]amino]ethoxy]ethoxy]acetyl]amino]ethoxy]ethoxy]acetyl]amino]-ethylamino]-2-oxoethyl]-Ala[Gln121,Leu168, … (protein) HPIPDSSPLLQFGGQVRQRYLYTDDAQQTEAHLEIREDGTVGGAADQSPESLLQLKALKPGVIQILGVKTSRFLCQRPDGALYGSLHFDPEACSFRELLLEDGYNVYQSEAHGLPLHLPGQKSPHRDPAPRGPARFLPLPGLPPALPEPPGILAPQPPDVGSSDPLSLVGPSQGCSPSYAS
9.00

Entry to check: 12-[[(1S)-4-[2-[2-[2-[2-[2-[2-[[(1S)-5-acetamido-1-carboxy-pentyl]amino]-2-oxo-ethoxy]ethoxy]ethylamino]-2-oxo-ethoxy]ethoxy]ethylamino]-1-carboxy-4-oxo-butyl]amino]-12-oxo-dodecanoic … (protein) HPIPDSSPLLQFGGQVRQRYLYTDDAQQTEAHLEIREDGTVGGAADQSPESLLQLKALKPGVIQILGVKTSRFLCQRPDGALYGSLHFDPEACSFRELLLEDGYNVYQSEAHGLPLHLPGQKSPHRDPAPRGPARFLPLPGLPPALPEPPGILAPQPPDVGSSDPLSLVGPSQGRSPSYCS
8.08

The measured values listed here are drawn from patent US20170182124A1.
